Measured values drawn from PubChem BioAssay for this set.

- METHOD NOTES: basal RPMI8226 viability, no added stimulus, profiling panel, cell-based, calcein-AM fluorescence, 48 h, PK04 Diversity Set (AID 1166);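 note: cells grown under basal conditions without added stimulus; test concentration not given here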
- TEST PARAMETERS: RPMI8226 myeloma viability, higher = more signal
QUANTITY NAME: z-score

What value of z-score has been recorded for this entry: `Cn1c(=O)n2n(c1=O)[C@H]1[C@H](O)[C@@H]3O[C@@H]3C(=NOC[C@@H](O)COCc3ccco3)[C@H]1CC2`
0.588

What value of z-score has been recorded for this entry: `CCCC[C@@H]1C[C@H]1[C@@H](NS(=O)(=O)c1cccc2cccnc12)c1ccc(-c2ccccc2)cc1`
0.0748

What value of z-score has been recorded for this entry: `C=CC[C@]1(C(=O)NCc2ccccc2)N=C(c2ccc(OCCCO)cc2)O[C@H]1c1ccccc1`
-3.75

What value of z-score has been recorded for this entry: `CCOC(=O)CCN1C(=O)[C@H]2[C@H]3[C@H](O)[C@H](O)CC(=NOC[C@@H](O)COCc4ccco4)[C@@H]3CC[C@H]2C1=O`
0.557

====

- STUDY TARGET: Alpha-bungarotoxin (Bungarus multicinctus) (UniProt P60615)
- Sequence (P60615 whole entry, looked up): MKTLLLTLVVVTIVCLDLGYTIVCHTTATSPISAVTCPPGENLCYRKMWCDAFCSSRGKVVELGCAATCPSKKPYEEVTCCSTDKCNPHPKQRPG
- METHOD NOTES: alpha-bungarotoxin binders on microarray, profiling panel, artefact control for SMM control protein annotation, biochemical, small-molecule microarray, Alexa647 label, 635/667 nm fluorescence (AID 1117)
- TEST PARAMETERS: alpha-BTX-A647 binding fluorescence, higher = more signal
QUANTITY NAME: composite z-score
Give the figure by itself; no unit, no explanation.

What value of composite z-score has been recorded for this entry: `CN(C)CCCNC(=O)[C@@H]1c2ccccc2C(=O)N(Cc2ccccc2)[C@H]1c1ccc(CO)cc1`
-0.261

What value of composite z-score has been recorded for this entry: COC(=O)C1(C)C=C2C(=C(c3ccccc3)C(=O)C2C)CN1 (stereo not drawn)
-0.422

What value of composite z-score has been recorded for this entry: `CCOC(=O)NN=C1C[C@@H](O)[C@@H](O)[C@@H]2[C@@H]3C(=O)N(C[C@@H]4CCCO4)C(=O)[C@@H]3CC[C@@H]12`
-0.189

What value of composite z-score has been recorded for this entry: C[C@@H]1CCC2C(=O)N(Cc3ccccc3)C[C@@H](O)CN2[C@H]1c1ccc(Br)cc1 (stereo partly drawn)
0.0711

What value of composite z-score has been recorded for this entry: `CO[C@H]1COC(=O)[C@@H]2CCCN2C(=O)[C@@H](C)COC(=O)CC=C[C@@H]1C`
-1.16

What value of composite z-score has been recorded for this entry: `CC(C)CON=C1[C@H]2CCn3c(=O)n(-c4ccccc4)c(=O)n3[C@H]2[C@H](O)[C@@H]2O[C@H]12`
0.0478

What value of composite z-score has been recorded for this entry: `C=CCOC(=O)[C@H]1[C@@H]2C(=O)O[C@@H](c3ccccc3)[C@@H](c3ccccc3)N2[C@@H](c2ccc(OCCOC(=O)[C@H]3C[C@H]4C(=O)N[C@@H](Cc5ccccc5)C(=O)N4[C@H]3c3ccc(O)cc3)cc2)[C@]12C(=O)Nc1ccccc12`
1.46

What value of composite z-score has been recorded for this entry: `CC(C)NC(=O)[C@@]1(c2ccc([N+](=O)[O-])cc2)CC(=O)N(CC23CC4CC(CC(C4)C2)C3)[C@@H]1c1ccc(CO)cc1I`
0.442

====

- STUDY TARGET: NADPH oxidase 5 (Homo sapiens) (UniProt Q96PH1)
- Sequence (Q96PH1 whole entry, looked up): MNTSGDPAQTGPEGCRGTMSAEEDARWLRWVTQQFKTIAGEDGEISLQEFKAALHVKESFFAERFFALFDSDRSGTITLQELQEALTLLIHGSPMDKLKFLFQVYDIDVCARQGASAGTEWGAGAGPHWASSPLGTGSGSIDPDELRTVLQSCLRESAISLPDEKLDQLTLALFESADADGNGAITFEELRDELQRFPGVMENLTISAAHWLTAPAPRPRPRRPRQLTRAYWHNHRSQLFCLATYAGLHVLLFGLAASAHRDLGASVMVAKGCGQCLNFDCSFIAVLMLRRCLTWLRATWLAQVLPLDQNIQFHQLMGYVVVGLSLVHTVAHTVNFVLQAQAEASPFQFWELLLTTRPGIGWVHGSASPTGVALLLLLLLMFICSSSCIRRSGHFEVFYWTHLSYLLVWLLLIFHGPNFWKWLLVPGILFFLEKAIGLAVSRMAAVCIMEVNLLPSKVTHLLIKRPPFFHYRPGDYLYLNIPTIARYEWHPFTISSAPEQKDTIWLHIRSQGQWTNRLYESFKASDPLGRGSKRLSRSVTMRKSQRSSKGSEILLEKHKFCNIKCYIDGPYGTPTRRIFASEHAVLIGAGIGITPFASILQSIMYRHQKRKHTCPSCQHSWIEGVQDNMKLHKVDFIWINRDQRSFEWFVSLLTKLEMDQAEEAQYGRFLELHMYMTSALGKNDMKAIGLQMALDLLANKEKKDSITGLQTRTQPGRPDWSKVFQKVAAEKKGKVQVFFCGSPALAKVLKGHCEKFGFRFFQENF
- METHOD NOTES: NOX5-dependent H2O2 signal modulators, primary screen, NOX inhibitor project, cell-based, HEK293-NOX5, Amplex Red fluorescence (AID 1161)
- TEST PARAMETERS: HEK293-NOX5, ionomycin, 45 min, higher = more signal
For each of the compounds below, state its z-score.
Give the figure by itself; no unit, no explanation.

What value of z-score has been recorded for this entry: CCOC(=O)[C@H](Cc1ccccc1)NC(=O)CCC1CC(OC(=O)NCc2ccc3c(c2)OCO3)CC2(CCCC(COC(=O)NCC3CCCCC3)O2)O1 (some centres not stated)
0.909

What value of z-score has been recorded for this entry: `CC(CCN1CCc2nc(-c3ccccc3)c(-c3ccccc3)cc2C1)=NO[C@@H](C)c1cn([C@H](CO)Cc2ccccc2)nn1`
-4.19

What value of z-score has been recorded for this entry: `CC(C)=CCCC(C)=CCON=C1C[C@@H](O)[C@@H](O)[C@@H]2[C@@H]3C(=O)N(C[C@@H]4CCCO4)C(=O)[C@@H]3CC[C@@H]12`
0.0838

What value of z-score has been recorded for this entry: `Cc1cc(C)c(-c2cc([C@H](C)ON=C3[C@H]4CCn5c(=O)n(-c6ccccc6)c(=O)n5[C@H]4[C@H](O)[C@@H]4O[C@H]34)on2)c(C)c1`
-0.114

What value of z-score has been recorded for this entry: `O=C1[C@H]2[C@H]3[C@H](O)[C@H](O)CC(=NO[C@@H]4O[C@H](CO)[C@@H](O)[C@H](O)[C@H]4O)[C@@H]3CC[C@H]2C(=O)N1c1ccc(F)cc1F`
-0.606

What value of z-score has been recorded for this entry: `Cc1cc2c(c(=O)o1)[C@H](O)[C@H]1O[C@H]1C2=O`
-1.39

What value of z-score has been recorded for this entry: `CC(C)C[C@@H]1NC(=O)[C@H]2C[C@@H](C(=O)O)[C@@H](c3ccc(O)cc3)N2C1=O`
-0.356

====

- METHOD NOTES: E. coli DRC41 culture turbidity changes, primary screen, E. coli filamentation inducer project, strain DRC41, OD650, 48 h (AID 1152);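 note: E. coli MC1000 strain DRC41 lacking acrAB efflux pump and sulA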
- TEST PARAMETERS: E. coli DRC41 (acrAB sulA), higher = more signal, called active from +8 up or from −8 down
Active and inactive are the calls of the source.
QUANTITY NAME: z-score

What value of z-score has been recorded for this entry: `O=C(NN=C1C[C@@H](O)[C@@H](O)[C@@H]2[C@@H]3C(=O)N(c4cccc(Oc5ccccc5)c4)C(=O)[C@@H]3CC[C@@H]12)OCc1ccccc1`
-0.385 (inactive)

What value of z-score has been recorded for this entry: `COCCOC(=O)N1C(=O)[C@@]2(c3cc(C#CCNC(N)=O)ccc31)[C@H](c1ccc(O)cc1)N1[C@H](c3ccccc3)[C@H](c3ccccc3)OC(=O)[C@H]1[C@@H]2C(=O)N1CCCCCCC1`
0.455 (inactive)

What value of z-score has been recorded for this entry: `C=COC[C@H]1CN2[C@@H](CC[C@@H](C)[C@@H]2c2ccc(Br)cc2)C(=O)O1`
-1.63 (inactive)

What value of z-score has been recorded for this entry: `COC(=O)[C@@]1(Cc2ccc(OC)cc2)[C@H]2c3cc(C(=O)N4CCCC4)n(Cc4cc(F)c(F)c(F)c4)c3C[C@H]2CN1C(=O)c1ccccc1`
-2.13 (inactive)

What value of z-score has been recorded for this entry: `C=CCOC(=O)[C@H]1[C@@H]2C(=O)O[C@@H](c3ccccc3)[C@@H](c3ccccc3)N2[C@@H](c2ccc(OCCOC(=O)[C@H]3C[C@H]4C(=O)N[C@@H](Cc5ccccc5)C(=O)N4[C@H]3c3ccc(O)cc3)cc2)[C@]12C(=O)Nc1ccccc12`
0.561 (inactive)

What value of z-score has been recorded for this entry: `CC(C)OC(=O)C=C1C[C@@H](c2ccc(C#N)cc2)O[C@@H](c2ccc(C#N)cc2)O1`
0.197 (inactive)

What value of z-score has been recorded for this entry: COC(=O)C1=CCC(c2cccc(Cl)c2)O1 (configuration not stated)
-0.367 (inactive)

====

- METHOD NOTES: basal RPMI8226 mitochondrial membrane potential changes, profiling panel, cell-based, JC-1 fluorescence, 24 h, 100 nL compound (AID 1169); note: test concentration not given here
- TEST PARAMETERS: RPMI8226 myeloma, JC-1 mitochondrial potential fluorescence, higher = more signal
QUANTITY NAME: z-score
Give the figure by itself; no unit, no explanation.

What value of z-score has been recorded for this entry: `CO[C@H]1COC(=O)[C@@H]2CCCN2C(=O)[C@@H](C)COC(=O)CC=C[C@@H]1C`
0.604

What value of z-score has been recorded for this entry: `COC(=O)CC=C[C@@H](C)[C@H](OC)c1ccccc1Br`
0.0131

What value of z-score has been recorded for this entry: CCCCCN1CC=CC23O[C@@H]4C=CCOC(=O)[C@@H]4[C@H]2C(=O)N(C(CO)C(C)C)[C@@H]3C1=O (stereo partly drawn)
-0.0576

What value of z-score has been recorded for this entry: `CCCNC(=O)OC[C@H]1O[C@H](CCON=CC[C@@H]2C=C[C@H](OC(C)=O)[C@@H](COC(C)=O)O2)C=C[C@@H]1Oc1ccc(OC)cc1`
-0.057

What value of z-score has been recorded for this entry: `C=CC[C@@H]1C=C[C@H](ON=Cc2ccc(C(=O)N3[C@H](c4ccc(C)cc4)[C@@H](C)CC[C@H]3C(=O)OC)cc2)[C@@H](CO)O1`
0.634

What value of z-score has been recorded for this entry: `C=CC[C@@H]1C=C[C@H](ON=C(C)CCN2CCc3nc(CC)c(CC)cc3C2)[C@@H](CO)O1`
0.0868

What value of z-score has been recorded for this entry: `CC(C)NC(=O)[C@@]1(C)c2ccccc2C(=O)N(Cc2cc(F)cc(C(F)(F)F)c2)[C@H]1c1ccc(CO)cc1`
0.102

What value of z-score has been recorded for this entry: `C/C=C\[C@@H](NCc1ccccc1Br)[C@@H](O)Cc1ccccc1`
-0.926
